target: T1, human 4-1BB (tumor necrosis factor receptor superfamily member 9) (human, UniProt Q07011 24-255); assay: flow cytometry (FACS) on CHO-K1/hu 4-1BB cells
T1 construct: whole, on cells; also called hu 4-1BB; CD137
T1 sequence (Q07011 24-255): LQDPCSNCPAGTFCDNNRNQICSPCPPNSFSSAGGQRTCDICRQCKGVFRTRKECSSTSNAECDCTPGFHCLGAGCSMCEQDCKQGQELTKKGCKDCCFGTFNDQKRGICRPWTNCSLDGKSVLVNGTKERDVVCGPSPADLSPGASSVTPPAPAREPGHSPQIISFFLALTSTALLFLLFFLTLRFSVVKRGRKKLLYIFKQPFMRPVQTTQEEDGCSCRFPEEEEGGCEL
READOUT: Maximum MFI (MFI)
Answers are plain numbers, in MFI.

### Prompt Read the entry Anti-4-1BB heavy-chain antibody 1016P0020G4, hIgG1 (antibody, V domains shown, HCAb (heavy chain dimer, no light chain), hIgG1 Fc; also called PR001836) VH: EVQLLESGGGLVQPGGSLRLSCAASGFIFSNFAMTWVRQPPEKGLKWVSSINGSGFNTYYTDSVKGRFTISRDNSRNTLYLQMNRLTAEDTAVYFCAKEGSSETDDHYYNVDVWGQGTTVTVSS and write its reported Maximum MFI.
### Response 1830

Next binder, Maximum MFI to be filled in.
### Prompt Read the entry Anti-4-1BB heavy-chain antibody 1016P0037D2, hIgG1 (antibody, V domains shown, HCAb (heavy chain dimer, no light chain), hIgG1 Fc; also called PR001840) VH: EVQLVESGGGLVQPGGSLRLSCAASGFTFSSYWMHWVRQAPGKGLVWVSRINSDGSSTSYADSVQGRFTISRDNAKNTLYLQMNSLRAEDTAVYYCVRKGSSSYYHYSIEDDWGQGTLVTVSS and write its reported Maximum MFI.
### Response 1790

Ref: patent US20230322953A1
